Multiple publications report IC50 for PIK3CB (Human); what follows is a combined list.

Problem: // returns reported IC50 for input `C[C@H](Nc1ncnc2[nH]cnc12)c1cc2cccc(Cl)c2c(C(=O)N(C)C2CCOCC2)n1`
Solution: > 10 µM

Problem: Item under review: CC1CN(C(=O)c2cnc3ccc(-c4ccc5oc(N)nc5c4)cn23)CCO1 (centres unmarked) . Reported IC50?
Solution: < 10 µM

Problem: So what's the measured IC50 for this one? `C[C@H](Nc1ncnc2[nH]cnc12)c1cc2cccc(Cl)c2c(C(=O)NCc2ccccc2)n1`
Solution: < 10 µM

Problem: Entry `Nc1nc2cc(-c3ccc4ncc(N5CCNC(=O)C5)nc4n3)ccc2o1` has what IC50?
Solution: < 1 µM

Problem: What IC50 value was documented for this compound, `C[C@H](Nc1ncnc2cccnc12)c1cc2cccc(Cl)c2c(C(=O)N2CCOC[C@@H]2C)n1` ?
Solution: < 10 µM

Problem: Please report the recorded IC50 for `Nc1nc2cc(-c3ccc4ncc(N5CC(N6CCN(C7CC7)CC6)C5)nc4n3)ccc2o1` .
Solution: < 10 µM

Problem: Using the record for `Cc1cccc2cc(Cn3nc(-c4cccc(O)c4)c4c(N)ncnc43)n(-c3ccccc3)c(=O)c12` , report its IC50.
Solution: > 10 µM

Problem: Look up IC50: `CN1CCN(C2CN(c3ccc4ncc(-c5ccc6oc(N)nc6c5)cc4n3)C2)CC1`
Solution: > 10 µM

* * *

IC50 for UniProtKB P42338 - collated from the literature.

Problem: Give the reported IC50 for `Cc1nc2c(-c3nnc[nH]3)cc(-c3ccnc(C#N)n3)cc2n1-c1ccnc2c(F)ccc(F)c12` (system: UniProtKB P42338).
Solution: 10 nM

Problem: Identify the measured IC50 of `Nc1ncc(-c2cc(N3C[C@H](CO)OC3=O)nc(N3CCOCC3)n2)c(C(F)(F)F)n1` for UniProtKB P42338.
Solution: 11 nM

Problem: What reported IC50 corresponds to `NCC(=O)N1CCN(c2cnc3ccc(-c4ccc5oc(N)nc5c4)cc3n2)CC1` on UniProtKB P42338?
Solution: < 1000 nM

Problem: Query for UniProtKB P42338: what IC50 does the record show for `CCn1cc(-c2cccc3cc([C@H](C)Nc4nc(N)ncc4C#N)n(-c4ccccc4)c(=O)c23)ccc1=O` ?
Solution: 1000 to 10000 nM

Problem: Please state recorded IC50 (tested on UniProtKB P42338) of `C[C@H](NC(=O)c1nc(-c2cccc(S(=O)(=O)NC3CC3)c2)cnc1N)c1cc2cccc(Cl)c2c(=O)n1-c1ccccc1`
Solution: 1000 to 10000 nM

Problem: # returns recorded IC50 (system: UniProtKB P42338) for `C[C@H](NC(=O)c1c(N)nn2cccnc12)c1cc2cccc(Cl)c2c(=O)n1-c1cccc(F)c1`
Solution: 100 to 1000 nM

Problem: IC50 of `Cc1cnc(C(=O)N[C@@H](C)c2cc3cccc(C(F)(F)F)c3c(=O)n2-c2ccccc2)c(N)n1` on UniProtKB P42338?
Solution: > 10000 nM

* * *

pIC50: −log10 of the molar value.
Collected pIC50 for PIK3CB (Human) across several studies; molecules listed below.

Problem: Returns the measured pIC50 for the input molecule. Input: `C[C@H](N)C(=O)N1CCN(c2cnc3ccc(-c4ccc5oc(N)nc5c4)nc3n2)CC1`
Solution: > 7.00

Problem: # get_value(readout='pIC50', item= `O=C(c1cnc2ccc(-c3ccc4oc(NC5CC5)nc4c3)cn12)N1CCOCC1` )
Solution: < 5.00

Problem: Query: pIC50; subject: `CCNC(=O)Nc1ccc(-c2nc(N3CCOCC3)nc3c2cnn3CC(C)(C)O)cc1`
Solution: < 7.00

Problem: Entry under review: `CC(=O)Nc1cccc(-c2cccc3cc([C@H](C)NC(=O)c4c(N)nn5cccnc45)n(-c4ccccc4)c(=O)c23)c1` . Reported pIC50?
Solution: < 5.00

Problem: Item `Cc1c(-c2cccc3cc([C@H](C)Nc4ncnc5scnc45)n(-c4ccccc4)c(=O)c23)cnn1C` has what recorded pIC50?
Solution: 5.00 to 6.00

Problem: Given the entry `Nc1nc2ccc(-c3cc(F)c4oc(N)nc4c3)cc2o1` , report its measured pIC50.
Solution: > 6.00

Problem: I am curious: what pIC50 value has been reported for `C[C@H](NC(=O)c1c(N)nn2cccnc12)c1cc2cccc(Cl)c2c(=O)n1CCN(C)C` ?
Solution: > 7.00

Problem: Look up pIC50 for this molecule: `Nc1cc(-c2cc(-c3nnc[nH]3)c3nc(C4CC4)n(-c4ccnc5c(F)cccc45)c3c2)ccn1`
Solution: 6.38

* * *

pIC50: −log10 of the molar value.
// compounds with pIC50 on PIK3CB (Human) (UniProt P42338), multi-source literature

Problem: Consider the compound shown here: `C[C@H](NC(=O)c1cnn2cccnc12)c1cc2cccc(Cl)c2c(=O)n1-c1ccc(F)cc1` What is its recorded pIC50?
Solution: 5.00 to 6.00

Problem: Would you kindly share the measured pIC50 for `Cc1ccccc1-n1c(Cn2nc(-c3cnn(C)c3)c3c(N)ncnc32)cc2cccc(C)c2c1=O` ?
Solution: < 5.00

Problem: State the recorded pIC50 for this entry: CNC(=O)C(C)Cn1cnc2ccc(-c3cnc(OC)c(NS(=O)(=O)c4ccc(F)cc4C)c3)cc2c1=O (single isomer, unassigned)
Solution: 6.39

Problem: Fill in the blank: the reported pIC50 of `C[C@@H]1CN(C2CCN(C(=O)c3nc4c(N5CCOCC5)nc(-c5cn[nH]c5)nc4[nH]3)CC2)C[C@H](C)O1` is ____.
Solution: < 5.00

Problem: Report pIC50 for `Cc1nc2cc(-c3ccc4c(c3)CN(c3nc(CN(C)C)nc(C)c3C(C)C)CCO4)cnc2[nH]1` please.
Solution: < 5.52

* * *

IC50 values for PIK3CB (Human) compiled from several publications are listed below.

Problem: Fill in the recorded IC50 for this molecule, with PIK3CB (Human) as test system: `O=C(c1cnc2ccc(-c3cccc(NS(=O)(=O)c4ccccc4)c3)cn12)N1CCOCC1`
Solution: > 10 µM

Problem: What value of IC50 on PIK3CB (Human) does `C[C@@H]1COCCN1C(=O)c1cnc2ccc(-c3ccc4oc(N)nc4c3)cn12` have?
Solution: < 10 µM

Problem: What value of IC50 on PIK3CB (Human) does COc1ncc(-c2ccc3ncn(CC(C)C(=O)NCC(F)(F)F)c(=O)c3c2)cc1NS(=O)(=O)c1ccc(F)cc1Cl (single isomer, unassigned) have?
Solution: 0.589 µM

Problem: What is its IC50 for PIK3CB (Human)? Entry: `Cc1cc(-c2cc(-c3nnc[nH]3)c3nc(C)n(-c4ccnc5c(F)ccc(F)c45)c3c2)ncn1`
Solution: 0.062 µM

Problem: What is its IC50 for PIK3CB (Human)? Entry: `COCCN(C)C(=O)c1nc([C@H](C)Nc2ncnc3cccnc23)cc2cccc(Cl)c12`
Solution: > 10 µM

Problem: Lookup: IC50 / PIK3CB (Human) / `C[C@H](NC(=O)c1c(N)nn2cccnc12)c1cc2cccc(N3CCOCC3)c2c(=O)n1-c1ccccc1`
Solution: > 10 µM

Problem: Please tell me: IC50 of `CNC(=O)[C@@H](C)Cn1cnc2ccc(-c3cnc(OC)c(NS(=O)(=O)c4cc(F)cc(F)c4)c3)cc2c1=O` , system PIK3CB (Human)?
Solution: 0.633 µM

Problem: Notebook: pull reported IC50 for PIK3CB (Human), entry `COc1cccc2c(C)c([C@H](C)NC(=O)c3c(N)nn4cccnc34)n(-c3ccccc3)c(=O)c12`
Solution: > 10 µM

Problem: Form field: IC50 recorded for `Nc1ccc(-c2nc(N3CCOCC3)nc3c2cnn3CC(=O)N2CCCC2)cn1` with PIK3CB (Human) (enter value)
Solution: > 10 µM

* * *

Literature pIC50 values, system: PIK3CB (Human).
pIC50: −log10 of the molar value.

Problem: Consider the compound shown here: `Cc1ccccc1-n1c(Cn2nc(-c3cccc(O)c3)c3c(N)ncnc32)nc2sc(C)c(C)c2c1=O` What is its recorded pIC50?
Solution: < 5.00

Problem: Entry `Cn1cc(-c2nc(N3CCOCC3)c3nc(C(=O)N4CCC5(CC4)COC5)[nH]c3n2)cn1` has what pIC50?
Solution: < 5.00

Problem: I am curious: what pIC50 value has been reported for `Cc1cccc2cc(Cn3nc(-c4cn[nH]c4)c4c(N)ncnc43)n(-c3ccccc3F)c(=O)c12` ?
Solution: > 5.00

Problem: Consider the compound `Cc1cccc2cc([C@H](C)Nc3ncnc4[nH]ccc34)n(-c3ccccc3)c(=O)c12` and give its measured pIC50.
Solution: > 5.00

Problem: If you can, please state the reported pIC50 value of `C[C@H](Nc1ncnc2scnc12)c1cc2cccc(-c3ccc(=O)n(C)c3)c2c(=O)n1-c1ccccc1` .
Solution: 5.00 to 6.00

Problem: Entry under review: `COc1ncc(-c2ccc3ncn(CCC(N)=O)c(=O)c3c2)cc1NS(=O)(=O)c1ccc(F)cc1Cl` . Reported pIC50?
Solution: 7.16

Problem: Fill in the blank: the reported pIC50 of `C[C@H](Nc1ncnc2cccnc12)c1cc2cccc(-c3cnn(C)c3)c2c(C(=O)N2CCOCC2)n1` is ____.
Solution: < 5.00

Problem: Request the reported pIC50 associated with `O=C(c1cnc2ccc(-c3cnc(Cl)c(NS(=O)(=O)c4ccc(F)cc4)c3)cn12)N1CCOCC1`
Solution: > 7.00

Problem: Which pIC50 is listed for `Nc1nc2cc(-c3ccc4ncc(N5CC(N6CCN(C7CC7)CC6)C5)cc4n3)ccc2o1` ?
Solution: > 5.00

Problem: // pIC50 lookup, key: `CC(=O)NC[C@@H]1CCN(C(=O)Nc2nc(C)c(-c3ccnc(C(C)(C)C(F)(F)F)c3)s2)[C@@H]1C(N)=O`
Solution: 6.00

Problem: Which value of pIC50 has been reported for `Nc1nc2cc(-c3ccc4ncc(N5CCN(CC6CC6)CC5)nc4c3)ccc2o1` in the records?
Solution: > 7.00

Problem: GET /values?readout=pIC50&item= `COC[C@@H]1CCN(C(=O)Nc2nc3c(s2)-c2nc(C(C)(C)C(F)(F)F)sc2CC3)[C@@H]1C(N)=O`
Solution: 6.26

Problem: Entry `C[C@H](Nc1nc(N)ncc1C#N)c1cc2cccc(Cl)c2c(=O)n1-c1ccc2c(c1)OCO2` : reported pIC50 = ?
Solution: 5.00 to 6.00

Problem: For `Nc1nc2cc(-c3ccc4ncc(N5CC(N6CCC(O)CC6)C5)nc4c3)ccc2o1` , what is its reported pIC50?
Solution: < 5.00

Problem: Recorded pIC50 for `Cn1cc(-c2nc(N3CCOCC3)c3nc(C(=O)NCCCN4CCCC4=O)[nH]c3n2)cn1` , please?
Solution: < 5.00

Problem: For `C[C@H](Nc1nc(N)ncc1-c1cnc(S(C)(=O)=O)s1)c1cc2cccc(Cl)c2c(=O)n1-c1ccccc1` , what is its reported pIC50?
Solution: 5.00 to 6.00

Problem: Field request: pIC50 | item: Cc1nc2c(-c3nnc[nH]3)cc(-c3ccnc(N)c3F)cc2n1-c1c(Cl)cnc2c(F)cccc12 (single isomer, unassigned)
Solution: 7.54

Problem: Please look up its pIC50: `CCN(CC)CCCNc1cnc2ccc(-c3ccc4oc(N)nc4c3)cc2n1`
Solution: > 6.00

Problem: Consider the compound shown here: `Cc1nc2c(C(N)=O)cc(-c3ccnc(N)c3)cc2n1-c1ccnc2c(Cl)cccc12` What is its recorded pIC50?
Solution: 7.02

Problem: Sample `CCNc1nc2ccc(-c3ccc4c(c3)CN(c3ncnc(NCC)c3C)CCO4)cc2[nH]1` — what was its pIC50?
Solution: 5.76

Problem: Give the measured pIC50 of `C[C@H](Nc1nc(N)ncc1C#N)c1cc2cccc(-c3ccc(NS(C)(=O)=O)cc3)c2c(=O)n1-c1ccccc1` .
Solution: 5.00 to 6.00

Problem: Would you mind telling me what pIC50 value was observed for `Cc1ccnc2nc(Cn3nc(C#CC4CC4)c4c(N)ncnc43)n(-c3ccccc3Cl)c(=O)c12` ?
Solution: < 5.00

Problem: Name the reported pIC50 value associated with the compound `C[C@H](Nc1ccnc2ccnn12)c1cc2cccc(Cl)c2c(OCCN2CCCC2)n1`
Solution: > 5.00

Problem: Which pIC50 reading was recorded for the compound `C[C@H](Nc1ncnc2[nH]cnc12)c1cc2c(F)ccc(Cl)c2c(CCN2CCOCC2)n1` ?
Solution: < 5.00

Problem: What does the record list as pIC50 for `Nc1nc2cc(-c3ccc4ncc(-c5cnn(CCO)c5)nc4c3)ccc2o1` ?
Solution: > 5.00

Problem: Need pIC50, item `Cc1ccccc1-n1c(Cn2nc(CCC(N)=O)c3c(N)ncnc32)cc2cccc(C)c2c1=O`
Solution: < 5.00

Problem: Any idea what its pIC50 is? The compound is `CC(=O)n1nc(N)c2ccc(-c3ccc4oc(N)nc4c3)cc21`
Solution: < 5.00

Problem: Need pIC50 of `Cc1nc2c(-c3nnc[nH]3)cc(-c3ccnc(N)c3)cc2n1-c1ccnc2c(Cl)ccc(F)c12` , thanks.
Solution: 8.52
